IC50 values for the molecules below.
Test system: LN-Cap
Assay: Cell proliferation assay (CellTiter-Glo)
Format: cell-based
Conditions: Homo sapiens, LNCaP; Prostate; 72 hours, 0.5% fetal bovine serum; read-out: antiproliferative activity IC50, LN-Cap

Ask: Query (molecule): CN(Cc1cc2nc(-c3ccc(N)cc3)nc(N3CCOCC3)c2s1)c1ncc(C(=O)NO)cn1 ; field requested: IC50
Result: < 10 nM

Ask: What about this molecule? CS(=O)(=O)N1CCN(Cc2cc3nc(-c4cccc5[nH]ncc45)nc(N4CCOCC4)c3s2)CC1 [GDC-0941, reference compound]
Result: 100 to 1000 nM

---

Target: PI3Kα (p110α/p85α) (Homo sapiens)
Construct: GST (N)
Sequence (P42336 whole entry): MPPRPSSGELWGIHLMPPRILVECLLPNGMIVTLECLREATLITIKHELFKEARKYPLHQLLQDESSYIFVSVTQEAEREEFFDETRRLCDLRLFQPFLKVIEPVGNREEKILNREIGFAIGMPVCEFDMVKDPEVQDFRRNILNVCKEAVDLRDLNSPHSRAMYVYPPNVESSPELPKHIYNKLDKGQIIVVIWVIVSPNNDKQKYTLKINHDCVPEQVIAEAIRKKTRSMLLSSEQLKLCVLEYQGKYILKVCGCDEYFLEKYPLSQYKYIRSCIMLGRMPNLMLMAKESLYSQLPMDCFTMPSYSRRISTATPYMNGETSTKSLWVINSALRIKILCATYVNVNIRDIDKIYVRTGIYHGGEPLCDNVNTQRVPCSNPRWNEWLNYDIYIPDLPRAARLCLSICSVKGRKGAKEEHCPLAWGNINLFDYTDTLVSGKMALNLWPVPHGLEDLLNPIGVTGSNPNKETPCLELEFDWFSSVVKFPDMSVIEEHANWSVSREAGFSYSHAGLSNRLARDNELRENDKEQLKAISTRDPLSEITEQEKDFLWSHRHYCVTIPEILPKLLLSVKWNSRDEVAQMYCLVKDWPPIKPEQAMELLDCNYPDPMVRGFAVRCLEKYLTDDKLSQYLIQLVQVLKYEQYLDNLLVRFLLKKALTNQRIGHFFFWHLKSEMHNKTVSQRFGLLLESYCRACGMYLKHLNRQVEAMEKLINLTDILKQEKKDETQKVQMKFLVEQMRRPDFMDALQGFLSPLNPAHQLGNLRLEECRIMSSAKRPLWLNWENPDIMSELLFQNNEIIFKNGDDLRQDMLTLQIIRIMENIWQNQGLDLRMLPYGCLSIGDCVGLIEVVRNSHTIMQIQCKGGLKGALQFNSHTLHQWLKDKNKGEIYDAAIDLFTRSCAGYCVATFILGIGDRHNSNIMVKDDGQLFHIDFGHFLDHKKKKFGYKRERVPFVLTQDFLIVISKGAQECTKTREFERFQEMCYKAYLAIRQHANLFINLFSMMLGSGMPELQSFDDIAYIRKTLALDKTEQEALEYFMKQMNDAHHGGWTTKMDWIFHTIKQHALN
Sequence (P27986 whole entry partner): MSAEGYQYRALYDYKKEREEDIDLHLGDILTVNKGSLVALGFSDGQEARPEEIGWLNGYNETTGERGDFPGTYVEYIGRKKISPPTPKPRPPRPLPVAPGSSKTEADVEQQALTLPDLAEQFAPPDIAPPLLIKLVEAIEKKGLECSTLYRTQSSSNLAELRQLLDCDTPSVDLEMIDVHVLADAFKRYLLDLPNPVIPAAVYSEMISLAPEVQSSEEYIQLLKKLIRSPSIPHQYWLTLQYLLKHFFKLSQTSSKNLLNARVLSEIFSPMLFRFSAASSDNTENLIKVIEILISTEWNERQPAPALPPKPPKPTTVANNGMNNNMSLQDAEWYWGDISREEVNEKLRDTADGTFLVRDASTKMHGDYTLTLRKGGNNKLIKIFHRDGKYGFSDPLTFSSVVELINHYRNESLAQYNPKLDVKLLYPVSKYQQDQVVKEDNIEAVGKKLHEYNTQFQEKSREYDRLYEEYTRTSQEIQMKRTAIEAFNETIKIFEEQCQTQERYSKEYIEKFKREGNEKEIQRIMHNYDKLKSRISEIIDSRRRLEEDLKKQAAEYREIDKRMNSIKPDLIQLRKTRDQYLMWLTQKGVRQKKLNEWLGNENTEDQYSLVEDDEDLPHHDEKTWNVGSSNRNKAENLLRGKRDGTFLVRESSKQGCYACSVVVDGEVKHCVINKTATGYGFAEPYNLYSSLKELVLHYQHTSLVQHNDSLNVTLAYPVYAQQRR
Assay: PI3Kα ADP-Glo assay
Conditions: 20 μM PIP2, 10 μM ATP, 30 minutes
pIC50: −log10 of the molar value.
In this section we review reported pIC50 values for a set of compounds.

CN(Cc1cc2nc(-c3ccc(N)nc3)nc(N3CCOCC3)c2s1)c1ncc(C(=O)NO)cn1 ... > 7.00
CCN(CC)c1nc(-c2cccc3[nH]ncc23)nc2cc(CN(C)c3ncc(C(=O)NO)cn3)sc12 ... < 5.00
CN(Cc1cc2nc(-c3cc[nH]c3)nc(N3CCOCC3)c2s1)c1ncc(C(=O)NO)cn1 ... > 7.00
Nc1ccc(-c2nc(N3CCOCC3)c3sc(CN(CCO)c4ncc(C(=O)NO)cn4)cc3n2)cn1 ... > 7.00

Ask: Which pIC50 is listed for CC(C)c1ccc(-c2nc(N3CCOCC3)c3sc(CN(C)c4ncc(C(=O)NO)cn4)cc3n2)cc1 ?
Result: < 5.00

Ask: Would you kindly repeat that for COCCN(Cc1cc2nc(-c3cccc4[nH]ncc34)nc(N3CCOCC3)c2s1)c1ncc(C(=O)NO)cn1 ?
Result: > 7.00

Ask: Again, but for CNc1ccc(-c2nc(N3CCOCC3)c3sc(NS(=O)(=O)c4cccc(/C=C/C(=O)NO)c4)cc3n2)cn1
Result: > 7.00

Sourced from patent US20130102595A1
